# System: breast cancer cases
# method.summary: Replication study, extended breast cancer material Swedish Cancer Registry 2000-2013 (n=103 500 cases), late entry models
# Format: in vivo, human
# test.conditions: Survival 2005-2008; use after diagnosis; adjusted for age, tumour stage; late entry models
# Experimental: Using an extended breast cancer material of all cases from the Swedish Cancer Registry 2000-2013 (n=103 500 cases) linking the data with the Drug Prescription Registry a replication study was carried out. The data from this extended study can be found in Tables 10 and 11. With the larger set of data, the effect for each individual antihistamine becomes more pronounced. […]
Parameter threshold = 0.8. Response is fulfilled when Breast cancer survival HR meets or exceeds it, else not fulfilled.

>  <compound>
O=C(O)COCCN1CCN(C(c2ccccc2)c2ccc(Cl)cc2)CC1 (stereo not drawn)

>  <group.label>
fulfilled

$$$$

Incoming: Given "CCOC(=O)N1CCC(=C2c3ccc(Cl)cc3CCc3cccnc32)CC1" , state whether its Breast cancer survival HR is at least 0.8.
Outgoing: not fulfilled

Incoming: Can you handle "CN1CCC[C@@H]1CCO[C@](C)(c1ccccc1)c1ccc(Cl)cc1" next?
Outgoing: fulfilled

Incoming: Another compound to check: "CC(C)(C)c1ccc(C(=O)CCCN2CCC(OC(c3ccccc3)c3ccccc3)CC2)cc1"
Outgoing: not fulfilled

Incoming: Now this one: CC(C)(C(=O)O)c1ccc(C(O)CCCN2CCC(C(O)(c3ccccc3)c3ccccc3)CC2)cc1 (stereo not drawn) [Fexofenadine, fexofenadine]
Outgoing: fulfilled

Incoming: Item: "Clc1ccc2c(c1)CCc1cccnc1C2=C1CCNCC1"
Outgoing: not fulfilled
